- MEASUREMENT TARGET: PDE4B (Homo sapiens, UniProt Q07343)
- Sequence (Q07343 whole entry, species assumed): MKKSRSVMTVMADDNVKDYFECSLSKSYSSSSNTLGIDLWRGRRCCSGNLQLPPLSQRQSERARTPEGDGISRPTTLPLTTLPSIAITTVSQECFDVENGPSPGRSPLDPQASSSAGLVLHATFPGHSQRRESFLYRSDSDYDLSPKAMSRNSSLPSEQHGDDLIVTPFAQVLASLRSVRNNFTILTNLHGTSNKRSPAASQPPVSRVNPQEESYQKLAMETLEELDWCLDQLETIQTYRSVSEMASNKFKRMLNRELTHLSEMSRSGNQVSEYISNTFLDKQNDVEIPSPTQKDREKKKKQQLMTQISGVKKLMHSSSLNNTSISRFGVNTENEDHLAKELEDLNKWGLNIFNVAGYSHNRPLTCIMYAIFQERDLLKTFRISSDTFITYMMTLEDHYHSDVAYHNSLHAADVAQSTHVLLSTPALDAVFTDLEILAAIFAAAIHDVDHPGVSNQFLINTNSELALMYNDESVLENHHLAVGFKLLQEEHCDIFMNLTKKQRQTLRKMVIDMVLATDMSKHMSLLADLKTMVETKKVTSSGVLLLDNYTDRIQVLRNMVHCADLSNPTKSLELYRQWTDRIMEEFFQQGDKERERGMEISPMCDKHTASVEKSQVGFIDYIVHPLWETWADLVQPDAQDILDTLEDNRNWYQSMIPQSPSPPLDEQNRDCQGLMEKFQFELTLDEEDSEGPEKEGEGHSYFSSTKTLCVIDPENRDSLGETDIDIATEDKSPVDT
- ASSAY PROTOCOL: Scintillation Proximity (SPA) Assay of PDE4B enzyme inhibition
- Type: biochemical
- APPLIED CONDITIONS: test substance 1 μM; one hour incubation of [H3]-cAMP with PDE4B enzyme at 30° C.; read-out: % Inhibition PDE4B @ 1 μM
The following compounds are shown together with reported inhibition at 1 µM values.

{"COMPOUND": "[O-][S+]1CCc2nc(N3CCN(c4ccc(Cl)cc4F)CC3)nc(NC3CCOCC3)c21 (centres unmarked)", "inhibition at 1 µM": "94%"}
{"COMPOUND": "CC(C)C(CO)Nc1nc(N2CCN(c3ccc(Cl)c(C#N)c3)CC2)nc2c1[S+]([O-])CC2 (centres unmarked)", "inhibition at 1 µM": "89%"}
{"COMPOUND": "Cc1cccc(N2CCN(c3nc4c(c(NC(CO)C(C)C)n3)[S+]([O-])CC4)CC2)c1 (centres unmarked)", "inhibition at 1 µM": "94%"}
{"COMPOUND": "[O-][S+]1CCc2nc(N3CCN(c4ccc(Cl)c(F)c4)CC3)nc(Nc3cccc(F)c3)c21 (centres unmarked)", "inhibition at 1 µM": "95%"}
{"COMPOUND": "CCC[C@H](CO)Nc1nc(N2CCN(c3ccc(Cl)c(C(F)(F)F)c3)CC2)nc2c1[S+]([O-])CC2 (some centres unmarked)", "inhibition at 1 µM": "94%"}
{"COMPOUND": "[O-][S+]1CCc2nc(N3CCN(c4ccccc4Cl)CC3)nc(NC3(CO)CC3)c21 (centres unmarked)", "inhibition at 1 µM": "94%"}
{"COMPOUND": "[O-][S+]1CCc2nc(N3CCN(c4cccc(F)c4)CC3)nc(NC3(CO)CC3)c21 (centres unmarked)", "inhibition at 1 µM": "97%"}
{"COMPOUND": "[O-][S+]1CCc2nc(N3CCN(c4cc(Cl)cc(Cl)c4)CC3)nc(Nc3cccc(F)c3)c21 (centres unmarked)", "inhibition at 1 µM": "96%"}

src = patent US20110028441A1
